# solubility thermodynamic annotations
ASSAY SUMMARY: Aqueous thermodynamic solubility, miniaturized shake-flask method with HPLC
Type: physicochemical
COND: aqueous phosphate buffer, 25 °C, pH 7.4, aqueous buffer, thermodynamic from solid, thermodynamic solubility, aqueous buffer pH 7.4, 25 °C; equilibrium after 24 h (c) or 48 h (d) per footnote; read-out: S0, exp
Procedure: The aqueous solubility was determined using a miniaturized shake-flask-method. […] For the calibration, at least three different dilutions of the compounds from DMSO stock solutions diluted with ACN were quantified. […] In the case of 3a the concentration in the supernatant was below the limit of quantification. […] 24‐72 h. […] All samples were measured in triplicate. […] In the case of 3a the concentration in the supernatant was below the limit of quantification. […]
READOUT: solubility thermodynamic

                                   molecule  recorded_result
0    Nc1nnc(Sc2ncnc3sccc23)s1 [Compound 8f]           4.4 µM
1  c1cnc2[nH]c(Sc3ncnc4sccc34)nc2c1 [Compound 8k]            77 µM
2     c1csc(Sc2ncnc3sccc23)n1 [Compound 8d]          36.4 µM
3  c1coc(-c2nnc(Sc3ncnc4sccc34)o2)c1 [Compound 3a]           < 1 µM

---

Tested on: human embryonic kidney (HEK-293) cells
ASSAY SUMMARY: Cytotoxicity assay: human HEK-293 cell line (resazurin)
Assay type: cell-based
COND: Homo sapiens, HEK293; cytotoxicity, 72 h; read-out: IC50 [µM], HEK-293
READOUT: IC50

>>> df
                                   compound  recorded_result
0  COc1ccc(C[C@H](N)C(=O)N[C@H]2[C@@H](O)[C@H](n3cnc4c(N(C)C)ncnc43)O[C@@H]2CO)cc1 [Puromyc, puromycin, reference compound]          0.36 µM
1         c1coc(-c2nnc(Sc3ncnc4sccc34)o2)c1          > 10 µM
2          c1cnc2[nH]c(Sc3ncnc4sccc34)nc2c1          > 20 µM
3          c1ccc2[nH]c(Sc3ncnc4sccc34)nc2c1          > 10 µM

---

System: Plasmodium falciparum parasites (3D7 strain)
ASSAY SUMMARY: Coenzyme A rescue assay (imaging-based growth inhibition, with or without 0.8 mM CoA)
Type: cell-based
COND: IC50 with 0.8 mM CoA / IC50 solvent; threshold 5× significant
READOUT: IC50-ratio (CoA/solvent)

>>> df
                                   molecule                               measured_on  recorded_result
0                    Cn1cnnc1Sc1ncnc2sccc12  Plasmodium falciparum parasites (3D7 strain)             7.39
1                  Nc1nnc(Sc2ncnc3sccc23)s1  Plasmodium falciparum parasites (3D7 strain)              117
2                   c1csc(Sc2ncnc3sccc23)n1  Plasmodium falciparum parasites (3D7 strain)             67.3
3  COc1ccc(C[C@H](N)C(=O)N[C@H]2[C@@H](O)[C@H](n3cnc4c(N(C)C)ncnc43)O[C@@H]2CO)cc1 [Puromyc, puromycin, reference compound]  Plasmodium falciparum parasites (3D7 strain)             2.78
4  CCN(CC)CCCC(C)Nc1ccnc2cc(Cl)ccc12 (stereo not shown) [Chloroqu, Chloroquine, reference compound]  Plasmodium falciparum parasites (3D7 strain)             1.39
5          c1ccc2[nH]c(Sc3ncnc4sccc34)nc2c1  Plasmodium falciparum parasites (3D7 strain)             7.23
6  Cc1csc(Sc2ncnc3sccc23)n1 [Amb180780, reference compound]  Plasmodium falciparum parasites (3D7 strain)             40.8
7                   c1coc(Sc2ncnc3sccc23)n1  Plasmodium falciparum parasites (3D7 strain)             34.5
8          c1cnc2[nH]c(Sc3ncnc4sccc34)nc2c1  Plasmodium falciparum parasites (3D7 strain)             7.11
9         c1coc(-c2nnc(Sc3ncnc4sccc34)o2)c1  Plasmodium falciparum parasites (3D7 strain)             16.3
